# Tested on: TNF-α
# Assay procedure: TNF-α expression in LPS stimulated PBMCs (Meso Scale)
# Assay type: cell-based, human
# Condition summary: Homo sapiens, PBMC, compound concentration 0.1 μM
Record form. Attribute: inhibition at 0.1 µM. Fill in for each entry.
Numbers only, in %.

Take a look at these entries with their results.
# Compound, Target under test, Units of measure, inhibition at 0.1 µM
measured = [
    ("Cc1c(Cl)cc(NC(=O)NCc2scc3c2CN(C2CCC(=O)NC2=O)C3=O)cc1C(C)C (stereo not shown) [Compound 48]", "TNF-α", "%", 92),
    ("O=C1CCC(N2Cc3c(csc3CNC(=O)Nc3ccc(C(F)(F)F)c(Cl)c3)C2=O)C(=O)N1 (stereo not shown) [Compound 55]", "TNF-α", "%", 96),
    ("O=C1CCC[C@H](N2Cc3c(csc3CNC(=O)Nc3ccc(C(F)(F)F)c(Cl)c3)C2=O)C(=O)N1 [Compound 32]", "TNF-α", "%", 62),
    ("Cc1ccc(NC(=O)NCc2scc3c2CN(C2CCC(=O)NC2=O)C3=O)cn1 (stereo not shown) [Compound 53]", "TNF-α", "%", 65),
    ("Cc1ccc(NC(=O)NCc2scc3c2CN(C2CCC(=O)NC2=O)C3=O)cc1C(F)(F)F (stereo not shown) [Compound 54]", "TNF-α", "%", 93),
]

Provide inhibition at 0.1 µM values for the following items, in order.
1. Cc1ccc(NC(=S)NCc2scc3c2CN(C2CCC(=O)NC2=O)C3=O)cc1Cl (stereo not shown) [Compound 52]
2. Cc1ccc(NC(=O)NCc2scc3c2CN(C2CCC(=O)NC2=O)C3=O)cc1C(C)C (stereo not shown) [Compound 47]

[95, 97]

###

# Target under test: GSPT1 (Homo sapiens, UniProt P15170)
# Construct: Whole cell extracts were prepared using RIPA buffer according to manufacturer's protocol (Pierce); endogenous in cells
# Sequence (P15170 whole entry): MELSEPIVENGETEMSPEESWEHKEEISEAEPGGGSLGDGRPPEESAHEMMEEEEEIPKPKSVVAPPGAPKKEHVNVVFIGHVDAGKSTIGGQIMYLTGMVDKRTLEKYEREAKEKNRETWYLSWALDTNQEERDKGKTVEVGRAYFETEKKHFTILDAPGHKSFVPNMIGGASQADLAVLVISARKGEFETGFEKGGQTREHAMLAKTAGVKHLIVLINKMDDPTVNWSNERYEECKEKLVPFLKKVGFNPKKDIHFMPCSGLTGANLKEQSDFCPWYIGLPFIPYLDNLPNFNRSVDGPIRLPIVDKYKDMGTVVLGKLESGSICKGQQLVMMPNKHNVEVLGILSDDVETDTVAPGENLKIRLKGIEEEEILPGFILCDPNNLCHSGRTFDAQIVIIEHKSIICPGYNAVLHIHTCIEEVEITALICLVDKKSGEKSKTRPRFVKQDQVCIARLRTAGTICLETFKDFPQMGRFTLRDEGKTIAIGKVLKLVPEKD
# Sequence (Q96SW2 whole entry, further chain): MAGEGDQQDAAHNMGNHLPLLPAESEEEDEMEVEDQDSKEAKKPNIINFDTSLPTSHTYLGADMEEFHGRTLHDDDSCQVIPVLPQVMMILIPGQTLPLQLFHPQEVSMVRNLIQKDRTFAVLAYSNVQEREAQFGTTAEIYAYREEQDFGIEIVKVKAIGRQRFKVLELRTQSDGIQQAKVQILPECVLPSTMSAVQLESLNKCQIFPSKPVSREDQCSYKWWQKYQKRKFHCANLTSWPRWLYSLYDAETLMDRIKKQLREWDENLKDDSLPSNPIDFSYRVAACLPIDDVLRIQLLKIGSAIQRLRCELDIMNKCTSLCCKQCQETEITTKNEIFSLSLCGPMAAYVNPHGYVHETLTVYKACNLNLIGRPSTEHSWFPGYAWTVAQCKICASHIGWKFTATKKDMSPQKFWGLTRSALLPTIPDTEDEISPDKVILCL
# Sequence (Q16531 whole entry partner): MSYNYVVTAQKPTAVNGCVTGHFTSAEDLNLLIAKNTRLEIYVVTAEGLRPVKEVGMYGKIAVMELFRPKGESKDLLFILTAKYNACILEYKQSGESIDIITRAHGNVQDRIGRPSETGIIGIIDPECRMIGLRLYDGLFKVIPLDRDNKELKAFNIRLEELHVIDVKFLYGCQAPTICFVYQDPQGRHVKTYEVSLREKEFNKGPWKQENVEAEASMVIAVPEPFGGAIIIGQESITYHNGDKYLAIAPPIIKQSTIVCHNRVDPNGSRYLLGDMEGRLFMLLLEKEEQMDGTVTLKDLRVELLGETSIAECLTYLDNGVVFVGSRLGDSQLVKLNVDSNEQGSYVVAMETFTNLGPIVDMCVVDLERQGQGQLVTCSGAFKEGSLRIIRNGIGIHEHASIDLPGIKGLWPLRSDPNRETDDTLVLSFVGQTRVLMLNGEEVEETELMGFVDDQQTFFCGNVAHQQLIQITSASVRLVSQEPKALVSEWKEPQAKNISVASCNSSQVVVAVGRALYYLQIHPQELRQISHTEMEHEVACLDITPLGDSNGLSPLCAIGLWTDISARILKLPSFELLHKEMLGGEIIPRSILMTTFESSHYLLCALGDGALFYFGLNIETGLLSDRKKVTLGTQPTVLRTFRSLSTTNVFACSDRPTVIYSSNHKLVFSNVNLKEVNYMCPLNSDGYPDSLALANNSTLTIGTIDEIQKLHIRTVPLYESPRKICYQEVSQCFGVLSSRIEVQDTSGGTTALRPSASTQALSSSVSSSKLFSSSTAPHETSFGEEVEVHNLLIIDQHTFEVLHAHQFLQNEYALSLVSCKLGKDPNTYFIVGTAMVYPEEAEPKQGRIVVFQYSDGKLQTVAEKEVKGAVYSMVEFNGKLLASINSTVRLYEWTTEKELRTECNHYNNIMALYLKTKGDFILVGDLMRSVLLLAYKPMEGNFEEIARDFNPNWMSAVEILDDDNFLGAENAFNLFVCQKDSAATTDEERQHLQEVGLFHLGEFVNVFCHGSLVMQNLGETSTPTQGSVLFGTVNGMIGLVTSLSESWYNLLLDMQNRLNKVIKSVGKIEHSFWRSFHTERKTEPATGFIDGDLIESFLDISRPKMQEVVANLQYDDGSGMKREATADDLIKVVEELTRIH
# Assay procedure: GSPT1 protein levels by Western Blot analysis
# Format: cell-based
# Condition summary: 100 nM compound concentration; DMSO = 100.00
# Protocol: Cells were lysed using RIPA Buffer (Pierce) and a Western Blot analysis was performed using anti-GSPT1 and anti-β-actin antibodies. FIG. 11B is a graph showing the expression levels of GSPT1 protein in Molm-13 (AML) cells. Protein expression levels were measured using the LiCor Odyssey instrumentation and methods. Western Blot Protocol: Cell lines were grown in RPMI 1640 supplemented with streptomycin, penicillin and 10% fetal bovine serum. […]
Record form. Attribute: remaining activity at 0.1 µM. Fill in for each entry.
Numbers only, in %.

# Compound, Units of measure, Measured result
rows = [
    ("Cc1c(Cl)cc(NC(=O)NCc2scc3c2CN([C@H]2CCCC(=O)NC2=O)C3=O)cc1C(C)C [Compound 43]", "%", 56),
]

Provide remaining activity at 0.1 µM values for the following items, in order.
1. Cc1ccc(NC(=O)NCc2cc3c(s2)C(=O)N([C@H]2CCCC(=O)NC2=O)C3)cc1Cl [Compound 35]
2. Cc1ccc(CNC(=O)NCc2scc3c2CN([C@H]2CCCC(=O)NC2=O)C3=O)cc1Cl [Compound 34]
3. Cc1cc(C)c(NC(=O)NCc2scc3c2CN([C@H]2CCCC(=O)NC2=O)C3=O)cc1Cl [Compound 36]

112
84.9
92.9

###

# Target under test: GSPT1 (Homo sapiens)
# Construct: Whole cell extracts were prepared using RIPA buffer according to manufacturer's protocol (Pierce); endogenous in cells
# Assay procedure: GSPT1 protein levels by Western Blot analysis
# Format: cell-based
# Condition summary: 1 μM compound concentration; DMSO = 100.00
# Procedure: Cells were lysed using RIPA Buffer (Pierce) and a Western Blot analysis was performed using anti-GSPT1 and anti-β-actin antibodies. FIG. 11B is a graph showing the expression levels of GSPT1 protein in Molm-13 (AML) cells. Protein expression levels were measured using the LiCor Odyssey instrumentation and methods. Western Blot Protocol: Cell lines were grown in RPMI 1640 supplemented with streptomycin, penicillin and 10% fetal bovine serum. […]
Readout label: remaining activity at 1 µM (%)
Numbers only, in %.

# Molecule, Measured result
data = [
    ("Cc1ccc(NC(=S)NCc2scc3c2CN(C2CCC(=O)NC2=O)C3=O)cc1Cl (stereo not drawn)", 1.05),
    ("Cc1ccc(NC(=O)NCc2scc3c2CN([C@H]2CCCC(=O)NC2=O)C3=O)cc1C(C)C", 8.44),
    ("Cc1ccc(NC(=O)NCc2cc3c(s2)C(=O)N([C@H]2CCCC(=O)NC2=O)C3)cc1Cl", 44.5),
    ("Cc1ccc(NC(=O)NCc2cc3c(s2)C(=O)N(C2CCC(=O)NC2=O)C3)cc1Cl (stereo not drawn)", 40),
    ("Cc1ccc(CNC(=O)NCc2scc3c2CN([C@H]2CCCC(=O)NC2=O)C3=O)cc1Cl", 37.5),
]

Field: next molecule
Retrieve remaining activity at 1 µM measured for Cc1ccc(CC(=O)NCc2scc3c2CN([C@H]2CCCC(=O)NC2=O)C3=O)cc1Cl and print it.
108

###

# Test system: MDA-MB-231 cells
# Assay procedure: MDA-MB-231 cell viability (CellTiter-Glo)
# Type: cell-based
# Condition summary: Homo sapiens, 72 h, 10 μM compound concentration, 3 days, DMSO = 100.00
Field 'label' (enum: yes / no). Set to yes when viability at 10 µM is strictly under 30%; else no.

Here's what some known entries look like.
# Molecule, Label
rows = [
    ("Cc1ccc(CC(=O)NCc2scc3c2CN([C@H]2CCCC(=O)NC2=O)C3=O)cc1Cl [Compound 31]", "no"),
    ("Cc1ccc(NC(=O)NCc2cc3c(s2)C(=O)N(C2CCC(=O)NC2=O)C3)cc1Cl (centres unmarked) [Compound 40]", "no"),
]

Please check: viability at 10 µM for Cc1ccc(NC(=O)NCc2scc3c2CN(C2CCC(=O)NC2=O)C3=O)cc1Cl (centres unmarked) [Compound 9] , strictly under 30% or not?
yes

Please check: viability at 10 µM for Cc1ccc(NC(=O)NCc2scc3c2CN(C2CCC(=O)NC2=O)C3=O)nc1Cl (centres unmarked) [Compound 46] , strictly under 30% or not?
yes

Please check: viability at 10 µM for Cc1ccc(NC(=O)NCc2scc3c2CN(C2CCC(=O)NC2=O)C3=O)cn1 (centres unmarked) [Compound 53] , strictly under 30% or not?
yes

Please check: viability at 10 µM for Cc1ccc(CNC(=O)NCc2cc3c(s2)C(=O)N(C2CCC(=O)NC2=O)C3)cc1Cl (centres unmarked) [Compound 44] , strictly under 30% or not?
no

Please check: viability at 10 µM for O=C1CCC[C@H](N2Cc3c(csc3CNC(=O)Nc3ccc(C(F)(F)F)c(Cl)c3)C2=O)C(=O)N1 [Compound 32] , strictly under 30% or not?
no

Please check: viability at 10 µM for Cc1ccc(CNC(=O)NCc2csc3c2CN([C@H]2CCCC(=O)NC2=O)C3=O)cc1Cl [Compound 51] , strictly under 30% or not?
no

Please check: viability at 10 µM for Cc1ccc(CC(=O)Nc2scc3c2CN(C2CCC(=O)NC2=O)C3=O)cc1Cl (centres unmarked) [Compound 56] , strictly under 30% or not?
no

###

# Target under test: GSPT1 (Homo sapiens)
# Construct: Whole cell extracts were prepared using RIPA buffer according to manufacturer's protocol (Pierce); endogenous in cells
# Assay procedure: GSPT1 protein levels by Western Blot analysis
# Assay type: cell-based
# Condition summary: 1 μM compound concentration; DMSO = 100.00
Readout label: remaining activity at 1 µM (%)
Answers are plain numbers, in %.

Take a look at these entries with their results.
# Molecule, Target under test, remaining activity at 1 µM (%)
rows = [
    ("Cc1c(Cl)cc(NC(=O)NCc2scc3c2CN(C2CCC(=O)NC2=O)C3=O)cc1C(C)C (stereo not shown) [Compound 48]", "GSPT1 (Homo sapiens)", 3.85),
    ("Cc1ccc(CNC(=O)NCc2cc3c(s2)C(=O)N([C@H]2CCCC(=O)NC2=O)C3)cc1Cl [Compound 39]", "GSPT1 (Homo sapiens)", 96),
    ("Cc1ccc(NC(=S)NCc2scc3c2CN([C@H]2CCCC(=O)NC2=O)C3=O)cc1Cl [Compound 41]", "GSPT1 (Homo sapiens)", 6.4),
]

Provide remaining activity at 1 µM values for the following items, in order.
1. Cc1ccc(NC(=O)NCc2scc3c2CN([C@H]2CCCC(=O)NC2=O)C3=O)nc1Cl [Compound 57]
2. Cc1ccc(NC(=O)NCc2scc3c2CN(C2CCC(=O)NC2=O)C3=O)cn1 (stereo not shown) [Compound 53]
3. Cc1ccc(CNC(=O)NCc2scc3c2CN(C2CCC(=O)NC2=O)C3=O)cc1Cl (stereo not shown) [Compound 33]
4. Cc1ccc(NC(=O)NCc2scc3c2CN(C2CCC(=O)NC2=O)C3=O)cc1C(F)(F)F (stereo not shown) [Compound 54]
5. Cc1ccc(NC(=O)NCc2scc3c2CN(C2CCC(=O)NC2=O)C3=O)cc1Cl (stereo not shown) [Compound 9]
6. Cc1ccc(CNC(=O)NCc2cc3c(s2)C(=O)N(C2CCC(=O)NC2=O)C3)cc1Cl (stereo not shown) [Compound 44]
7. Cc1ccc(NC(=O)NCc2scc3c2CN([C@H]2CCCC(=O)NC2=O)C3=O)cc1C(F)(F)F [Compound 38]

[28.4, 6.18, 5.5, 2.72, 5.31, 53.6, 5.52]

Provide remaining activity at 1 µM values for the following items, in order.
1. O=C1CCC(N2Cc3c(csc3CNC(=O)Nc3ccc(C(F)(F)F)c(Cl)c3)C2=O)C(=O)N1 (stereo not shown) [Compound 55]
2. Cc1c(Cl)cc(NC(=O)NCc2scc3c2CN([C@H]2CCCC(=O)NC2=O)C3=O)cc1C(C)C [Compound 43]
3. Cc1ccc(NC(=O)NCc2scc3c2CN(C2CCC(=O)NC2=O)C3=O)nc1Cl (stereo not shown) [Compound 46]
4. Cc1ccc(NC(=O)NCc2csc3c2CN([C@H]2CCCC(=O)NC2=O)C3=O)cc1Cl [Compound 45]
5. Cc1cc(C)c(NC(=O)NCc2scc3c2CN(C2CCC(=O)NC2=O)C3=O)cc1Cl (stereo not shown) [Compound 49]
6. Cc1ccc(NC(=O)NCc2scc3c2CN(C2CCC(=O)NC2=O)C3=O)cc1C(C)C (stereo not shown) [Compound 47]

1. 2.86
2. 14.2
3. 4.73
4. 22.3
5. 20
6. 2.61

Where do these numbers come from? They come from patent US10040804B2.
